- Tested on: HCT-116
- MEASUREMENT_NOTES: Cell cycle arrest in human HCT116 cells harboring wild-type p53 assessed as mitotic index at 25 uM measured after 48 hrs by Hoechst staining based fluorescence assay (reference value: 2.3)
- Format: functional
ASSAY_READOUT: Activity_index

>>> val("COc1cc(OC)c(C(=O)/C=C/c2ccc(F)cc2)c(OC)c1")
0.4
>>> val("COc1cc(OC)c(C(=O)/C=C/c2ccc(Br)cc2)c(OC)c1")
0.6
>>> val("Oc1cccc(-c2nc(N3CCOCC3)c3oc4ncccc4c3n2)c1 [PI-103]")
1.8
>>> val("COc1cc(O)c(C(=O)/C=C/c2ccccc2SC)c(OC)c1")
1.3
>>> val("COc1cc(O)c(C(=O)/C=C/c2ccc(F)cc2)c(OC)c1")
0.7
>>> val("COc1cccc(/C=C/C(=O)c2c(O)cc(OC)cc2OC)c1")
0.3
>>> val("COc1cc(O)c(C(=O)/C=C/c2ccccc2)c(OC)c1 [FLAVOKAWAIN B]")
0.6
>>> val("COc1cc(OC)c(C(=O)/C=C/c2ccccc2SC)c(OC)c1")
0.4
>>> val("COc1cc(OC)c(C(=O)/C=C/c2ccccc2)c(OC)c1")
0.8
>>> val("COc1cc(O)c(C(=O)/C=C/c2ccccc2OC)c(OC)c1")
1.8
>>> val("COc1cccc(/C=C/C(=O)c2c(OC)cc(OC)cc2OC)c1")
1.2

----------
- Tested on: MDA-MB-231
- MEASUREMENT_NOTES: Cell cycle arrest in human MDA-MB-231 cells harboring p53 mutant assessed as mitotic index at 10 uM measured after 48 hrs by Hoechst staining based fluorescence assay (reference value: 2.1)
- Format: functional
ASSAY_READOUT: Activity_index

>>> val("COc1cc(OC)c(C(=O)/C=C/c2ccc(F)cc2)c(OC)c1")
22
>>> val("COc1cccc(/C=C/C(=O)c2c(OC)cc(OC)cc2OC)c1")
25
>>> val("COc1cc(OC)c(C(=O)/C=C/c2ccc(Br)cc2)c(OC)c1")
15
>>> val("COc1cc(OC)c(C(=O)/C=C/c2ccccc2SC)c(OC)c1")
18
>>> val("COc1cc(OC)c(C(=O)/C=C/c2ccccc2)c(OC)c1")
21
>>> val("COc1cc(O)c(C(=O)/C=C/c2ccccc2)c(OC)c1")
5.2
>>> val("COc1cccc(/C=C/C(=O)c2c(O)cc(OC)cc2OC)c1")
4.2

----------
- MEASUREMENT_NOTES: Selectivity index, ratio of IC50 for human fibroblasts to IC50 for human HaCaT cells
ASSAY_READOUT: Ratio IC50

>>> val("COc1cc(OC)c(C(=O)/C=C/c2ccccc2SC)c(OC)c1")
4.1
>>> val("COc1cc(O)c(C(=O)/C=C/c2ccccc2OC)c(OC)c1")
3.3
>>> val("COc1cc(OC)c(C(=O)/C=C/c2ccccc2OC)c(OC)c1")
0.9
>>> val("COc1cccc(/C=C/C(=O)c2c(O)cc(OC)cc2OC)c1")
2.6

----------
Each entry below carries its reported IC50.
- System: Caco-2
- MEASUREMENT_NOTES: Cytotoxicity against human Caco2 cells assessed as cell viability after 48 hrs by Hoechst 33342 staining based assay
- Type: functional
- RUN_CONDITIONS: Caco-2, 48 h
ASSAY_READOUT: IC50 (µM)

>>> val("COc1cc(O)c(C(=O)/C=C/c2ccccc2)c(OC)c1")
9.9
>>> val("COc1cc(OC)c(C(=O)/C=C/c2ccccc2)c(OC)c1")
5.8
>>> val("COc1cc(O)c(C(=O)/C=C/c2ccc(F)cc2)c(OC)c1")
9.2
>>> val("COc1cc(O)c(C(=O)/C=C/c2ccccc2SC)c(OC)c1")
9.6
>>> val("COc1cccc(/C=C/C(=O)c2c(O)cc(OC)cc2OC)c1")
11.2
>>> val("Oc1cccc(-c2nc(N3CCOCC3)c3oc4ncccc4c3n2)c1")
2
>>> val("COc1cc(OC)c(C(=O)/C=C/c2ccccc2OC)c(OC)c1")
4.5
>>> val("COc1cc(OC)c(C(=O)/C=C/c2ccc(F)cc2)c(OC)c1")
5.5
>>> val("COc1cccc(/C=C/C(=O)c2c(OC)cc(OC)cc2OC)c1")
3.9
>>> val("COc1cc(OC)c(C(=O)/C=C/c2ccccc2SC)c(OC)c1")
8.8
>>> val("COc1cc(O)c(C(=O)/C=C/c2ccccc2OC)c(OC)c1")
10
>>> val("COc1cc(OC)c(C(=O)/C=C/c2ccc(Br)cc2)c(OC)c1")
6.8

----------
- System: Caco-2
- MEASUREMENT_NOTES: Cell cycle arrest in human Caco2 cells assessed as accumulation at S phase at 10 uM measured after 48 hrs by Hoechst/BrdU staining based fluorescence assay (reference value: […])
- Assay type: functional
Please respond with Met when measured Activity is strictly beneath 40%, and with Not met in all other cases.

>>> assigned_class("COc1cccc(/C=C/C(=O)c2c(OC)cc(OC)cc2OC)c1")
"Met"
>>> assigned_class("COc1cc(OC)c(C(=O)/C=C/c2ccccc2SC)c(OC)c1")
"Met"
>>> assigned_class("COc1cc(O)c(C(=O)/C=C/c2ccccc2SC)c(OC)c1")
"Not met"
>>> assigned_class("COc1cccc(/C=C/C(=O)c2c(O)cc(OC)cc2OC)c1")
"Met"
>>> assigned_class("COc1cc(O)c(C(=O)/C=C/c2ccc(F)cc2)c(OC)c1")
"Not met"
>>> assigned_class("COc1cc(O)c(C(=O)/C=C/c2ccccc2OC)c(OC)c1")
"Not met"
>>> assigned_class("COc1cc(OC)c(C(=O)/C=C/c2ccc(Br)cc2)c(OC)c1")
"Met"
>>> assigned_class("Oc1cccc(-c2nc(N3CCOCC3)c3oc4ncccc4c3n2)c1 [PI-103]")
"Met"
>>> assigned_class("COc1cc(OC)c(C(=O)/C=C/c2ccccc2)c(OC)c1")
"Met"
>>> assigned_class("COc1cc(O)c(C(=O)/C=C/c2ccccc2)c(OC)c1 [FLAVOKAWAIN B]")
"Not met"

----------
- MEASUREMENT_NOTES: Selectivity index, ratio of IC50 for human fibroblasts to IC50 for human MDA-MB-231 cells
Listed below: Ratio IC50 values for each entry.
ASSAY_READOUT: Ratio IC50

>>> val("COc1cc(OC)c(C(=O)/C=C/c2ccccc2OC)c(OC)c1")
0.6
>>> val("COc1cc(O)c(C(=O)/C=C/c2ccccc2)c(OC)c1 [FLAVOKAWAIN B]")
1.6
>>> val("COc1cc(OC)c(C(=O)/C=C/c2ccccc2SC)c(OC)c1")
3.2
>>> val("COc1cccc(/C=C/C(=O)c2c(O)cc(OC)cc2OC)c1")
2

----------
- Tested on: HaCaT
- MEASUREMENT_NOTES: Cell cycle arrest in human HaCaT cells harboring […] p53 assessed as accumulation at S phase at 10 uM measured after 48 hrs by Hoechst/BrdU staining based fluorescence assay (reference value: 52.3%)
- Format: functional
ASSAY_READOUT: Activity

>>> val("CC[C@H](CO)Nc1nc(NCc2ccccc2)c2ncn(C(C)C)c2n1 [SELICICLIB]")
"26%"
>>> val("COc1cccc(/C=C/C(=O)c2c(O)cc(OC)cc2OC)c1")
"49%"
>>> val("COc1cc(O)c(C(=O)/C=C/c2ccccc2)c(OC)c1 [FLAVOKAWAIN B]")
"50%"
>>> val("COc1cc(OC)c(C(=O)/C=C/c2ccccc2)c(OC)c1")
"18%"
>>> val("COc1cc(OC)c(C(=O)/C=C/c2ccccc2SC)c(OC)c1")
"24%"

----------
- Test system: NCI-H727
- MEASUREMENT_NOTES: Cell cycle arrest in human NCI-H727 cells harboring p53 mutant assessed as accumulation at S phase at 25 uM measured after 48 hrs by Hoechst/BrdU staining based fluorescence assay (reference value: 40.3%)
- Type: functional
Calls of active or inactive are those of the source. No cut-off for these calls is given here.
ASSAY_READOUT: Activity

>>> val("COc1cccc(/C=C/C(=O)c2c(OC)cc(OC)cc2OC)c1")
"5.1%"
>>> val("CC[C@H](CO)Nc1nc(NCc2ccccc2)c2ncn(C(C)C)c2n1 [SELICICLIB]")
"inactive"
>>> val("COc1cc(O)c(C(=O)/C=C/c2ccccc2OC)c(OC)c1")
"14%"
>>> val("COc1cc(O)c(C(=O)/C=C/c2ccccc2SC)c(OC)c1")
"12%"
>>> val("COc1cc(O)c(C(=O)/C=C/c2ccc(F)cc2)c(OC)c1")
"inactive"
>>> val("COc1cccc(/C=C/C(=O)c2c(O)cc(OC)cc2OC)c1")
"1.4%"
>>> val("COc1cc(O)c(C(=O)/C=C/c2ccccc2)c(OC)c1 [FLAVOKAWAIN B]")
"7%"
>>> val("COc1cc(OC)c(C(=O)/C=C/c2ccc(F)cc2)c(OC)c1")
"4.5%"
>>> val("COc1cc(OC)c(C(=O)/C=C/c2ccc(Br)cc2)c(OC)c1")
"6%"
>>> val("COc1cc(OC)c(C(=O)/C=C/c2ccccc2SC)c(OC)c1")
"3%"
>>> val("Oc1cccc(-c2nc(N3CCOCC3)c3oc4ncccc4c3n2)c1 [PI-103]")
"inactive"
>>> val("COc1cc(OC)c(C(=O)/C=C/c2ccccc2)c(OC)c1")
"4.5%"
